The reported measurements were obtained from patent US6004950A.

Biological target: COX-2 (Homo sapiens)
Construct: incubation of human whole blood with LPS, which induces COX-2; endogenous in cells; host or cells: heparinized fresh whole blood of human volunteers, incubated with LPS for 24 h
Sequence (P35354 18-604): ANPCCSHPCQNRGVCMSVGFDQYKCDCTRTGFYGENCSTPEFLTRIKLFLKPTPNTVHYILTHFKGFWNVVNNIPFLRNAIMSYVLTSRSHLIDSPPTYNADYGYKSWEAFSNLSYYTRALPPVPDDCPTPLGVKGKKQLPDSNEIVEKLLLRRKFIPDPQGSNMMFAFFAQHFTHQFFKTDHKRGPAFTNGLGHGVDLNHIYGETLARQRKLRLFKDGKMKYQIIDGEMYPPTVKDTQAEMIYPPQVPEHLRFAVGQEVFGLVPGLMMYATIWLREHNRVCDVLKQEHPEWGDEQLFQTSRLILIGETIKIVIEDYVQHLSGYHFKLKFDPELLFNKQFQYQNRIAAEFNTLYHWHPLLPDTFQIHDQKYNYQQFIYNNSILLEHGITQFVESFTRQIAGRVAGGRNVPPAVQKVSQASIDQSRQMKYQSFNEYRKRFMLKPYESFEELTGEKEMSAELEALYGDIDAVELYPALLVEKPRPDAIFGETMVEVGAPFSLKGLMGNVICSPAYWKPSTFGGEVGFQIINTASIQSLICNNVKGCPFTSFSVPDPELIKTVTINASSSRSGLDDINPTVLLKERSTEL
Experiment: Whole cell assay for COX-2 using CHO transfected cell line CHO[hCOX-2], inhibition of PGE2 synthesis
Assay type: cell-based
Conditions: CHO[hCOX-2] cells, 10 μM AA, PGE2; read-out: COX-2 (IC50 mM) CHO
PARAMETER: log10 IC50 (log10 of the value in nM)
Log scale reminder: IC50 in nM, then log10 taken.

Some molecules with known log10 IC50 results, for comparison:
INSERT INTO results (molecule, parameter, quantitative_readout) VALUES
  ('CS(=O)(=O)c1ccc(-c2cc(C(F)(F)F)cnc2N2CCCCC(CO)C2)cc1 (stereo not drawn)', 'log10 IC50', 1.90),
  ('CS(=O)(=O)c1ccc(-c2cc(C(F)(F)F)cnc2N2CCCC(F)(F)C2)cc1', 'log10 IC50', 1.90),
  ('CS(=O)(=O)c1ccc(-c2cccnc2N2CCCCC2)cc1', 'log10 IC50', 2.11),
  ('CS(=O)(=O)c1ccc(-c2cc(Cl)cnc2N2CCC[C@H]2CO)cc1', 'log10 IC50', 1.48),
  ('CS(=O)(=O)c1ccc(-c2cc(C(F)(F)F)cnc2N2CCCCC2CO)cc1 (stereo not drawn)', 'log10 IC50', 2.00),
  ('CS(=O)(=O)c1ccc(-c2cc(C(F)(F)F)cnc2N2CCC[C@H]2CO)cc1', 'log10 IC50', 1.60);

Bench note: what log10 IC50 did CS(=O)(=O)c1ccc(-c2cc(C(F)(F)F)cnc2N2CCC(=O)CC2)cc1 show?
1.95

Field request: log10 IC50 | item: CC(=O)OC[C@@H]1CCCN1c1ncc(C(F)(F)F)cc1-c1ccc(S(C)(=O)=O)cc1
1.85

Fill in: log10 IC50 of CS(=O)(=O)c1ccc(-c2cc(C(F)(F)F)cnc2N2CCCCC2CCO)cc1 (stereo not drawn) is ___
2.96

Suppose we examine the molecule CS(=O)(=O)c1ccc(-c2cc(C(F)(F)F)cnc2N2CCC(O)CC2)cc1 ; what log10 IC50 value has been reported?
1.48

Given the molecule CS(=O)(=O)c1ccc(-c2cc(C(F)(F)F)cnc2N2CCOCC2)cc1 , what is its reported log10 IC50?
1.78
